Value source: ChEMBL document CHEMBL3988442

# Assayed system: AMP-activated protein kinase, AMPK (Homo sapiens) (UniProt P54646+O43741+P54619+Q9UGJ0+Q9Y478+Q13131+Q9UGI9)
# Experimental protocol: AMP-dependent Kinase enzyme assay. An in vitro enzyme assay that detects ADP turnover that is directly proportional to AMPK activity. This uses naive AMPK that is activated during the assay with MK-8722
# Assay type: functional
# Parameters: scale not given: direction of the effect not stated beside the values
# Condition label: 30 µM
compounds and their reported Percent Effect
Value kind: Percent Effect (%)

> print(dat)
                                   compound      value.kind  experimental.value
1  O=C(NCC1CC1)C1CSCN1S(=O)(=O)c1cccc(F)c1 (stereo not drawn)  Percent Effect              -0.192
2     NS(=O)(=O)CCNC(=O)C1(c2ccc(Br)cc2)CC1  Percent Effect               -1.42
3    CNCC(=O)N1CC(c2cc(Nc3ncccn3)nc(C)n2)C1  Percent Effect                6.11
4      CC(C)c1cccc(CSc2nnc(CN3CCCC3=O)o2)n1  Percent Effect               -1.77
5  Cn1c(C(F)(F)F)nn(CCNC(=O)NCc2ccccc2)c1=O  Percent Effect               -5.98
6  Cc1nc(N)cc(C2CN(C(=O)c3ccn(C)n3)CCO2)n1 (stereo not drawn)  Percent Effect               0.477
7  Cc1nn(C)c(N(C)C)c1CNCC(O)COc1ccccc1 (stereo not drawn)  Percent Effect               -12.3
8  Cc1nc(C2CCCN(C(=O)c3ccc(OCC4CC4)cc3)C2)no1 (stereo not drawn)  Percent Effect               -2.79
